# test_target: Polyunsaturated fatty acid 5-lipoxygenase (Homo sapiens, UniProt P09917)
# Sequence (P09917 whole entry): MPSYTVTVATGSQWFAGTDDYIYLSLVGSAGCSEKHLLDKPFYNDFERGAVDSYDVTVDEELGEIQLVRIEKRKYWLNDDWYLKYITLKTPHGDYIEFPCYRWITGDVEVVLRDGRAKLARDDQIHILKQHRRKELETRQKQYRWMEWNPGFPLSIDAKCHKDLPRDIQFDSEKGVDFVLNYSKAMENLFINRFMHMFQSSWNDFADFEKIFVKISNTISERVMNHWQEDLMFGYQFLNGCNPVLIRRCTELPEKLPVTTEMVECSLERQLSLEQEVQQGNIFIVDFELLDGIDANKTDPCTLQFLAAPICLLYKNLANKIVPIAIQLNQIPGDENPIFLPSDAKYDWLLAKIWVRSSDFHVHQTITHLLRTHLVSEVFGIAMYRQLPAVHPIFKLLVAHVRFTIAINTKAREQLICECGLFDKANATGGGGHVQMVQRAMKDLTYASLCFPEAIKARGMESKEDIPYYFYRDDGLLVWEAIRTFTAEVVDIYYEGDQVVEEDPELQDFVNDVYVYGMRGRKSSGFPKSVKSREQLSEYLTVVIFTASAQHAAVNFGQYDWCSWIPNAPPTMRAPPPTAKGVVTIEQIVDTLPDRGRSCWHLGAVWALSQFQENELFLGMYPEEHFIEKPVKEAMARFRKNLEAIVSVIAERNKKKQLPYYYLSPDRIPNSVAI
# experiment_description: Inhibition of 5-LOX in human intact polymorphonuclear leukocytes preincubated for 15 mins with CaCl2, A23187 measured after 10 mins by HPLC analysis
pIC50: −log10 of the molar value.
result_type: pIC50

# structure_smiles, test_target, reading
records = [
    ("CCOC(=O)c1c(CSc2cc(C)cc(C)c2)[nH]c2c1cc(O)c1ccccc12", "Polyunsaturated fatty acid 5-lipoxygenase (Homo sapiens, UniProt P09917)", 6.54),
    ("CCOC(=O)c1c(CSc2cccc(Cl)c2)[nH]c2c1cc(O)c1ccccc12", "Polyunsaturated fatty acid 5-lipoxygenase (Homo sapiens, UniProt P09917)", 6.59),
    ("CCOC(=O)c1c(CSc2c(C)cc(C)cc2C)[nH]c2c1cc(O)c1ccccc12", "Polyunsaturated fatty acid 5-lipoxygenase (Homo sapiens, UniProt P09917)", 6.43),
    ("CCOC(=O)c1c(CSc2ccccc2C)[nH]c2c1cc(O)c1ccccc12", "Polyunsaturated fatty acid 5-lipoxygenase (Homo sapiens, UniProt P09917)", 6.59),
]
